assay: Luciferase activity of purified RLuc mutants (light output integrated over 10 s, luminometer); type: biochemical; settings: bisdeoxycoelenterazine; relative to native enzyme
Readout Label: Activity (relative to RLuc) bdc
Enter the number alone.

Molecule	Activity (relative to RLuc) bdc
C124A/S287L: RLuc mutant C124A/S287L (protein) MASKVYDPEQRKRMITGPQWWARCKQMNVLDSFINYYDSEKHAENAVIFLHGNAASSYLWRHVVPHIEPVARCIIPDLIGMGKSGKSGNGSYRLLDHYKYLTAWFELLNLPKKIIFVGHDWGAALAFHYSYEHQDKIKAIVHAESVVDVIESWDEWPDIEEDIALIKSEEGEKMVLENNFFVETMLPSKIMRKLEPEEFAAYLEPFKEKGEVRRPTLSWPREIPLVKGGKPDVVQIVRNYNAYLRASDDLPKMFIESDPGFFSNAIVEGAKKFPNTEFVKVKGLHFLQEDAPDEMGKYIKSFVERVLKNEQ	9.5

// next item, Activity (relative to RLuc) bdc requested
Please look up its Activity (relative to RLuc) bdc: C124A/F262L: RLuc mutant C124A/F262L (protein) MASKVYDPEQRKRMITGPQWWARCKQMNVLDSFINYYDSEKHAENAVIFLHGNAASSYLWRHVVPHIEPVARCIIPDLIGMGKSGKSGNGSYRLLDHYKYLTAWFELLNLPKKIIFVGHDWGAALAFHYSYEHQDKIKAIVHAESVVDVIESWDEWPDIEEDIALIKSEEGEKMVLENNFFVETMLPSKIMRKLEPEEFAAYLEPFKEKGEVRRPTLSWPREIPLVKGGKPDVVQIVRNYNAYLRASDDLPKMFIESDPGFLSNAIVEGAKKFPNTEFVKVKGLHFSQEDAPDEMGKYIKSFVERVLKNEQ
0.03
